Let's go through some recorded IC50 values for UniProt Q95PM0 together.
Sequence (Q95PM0 whole entry): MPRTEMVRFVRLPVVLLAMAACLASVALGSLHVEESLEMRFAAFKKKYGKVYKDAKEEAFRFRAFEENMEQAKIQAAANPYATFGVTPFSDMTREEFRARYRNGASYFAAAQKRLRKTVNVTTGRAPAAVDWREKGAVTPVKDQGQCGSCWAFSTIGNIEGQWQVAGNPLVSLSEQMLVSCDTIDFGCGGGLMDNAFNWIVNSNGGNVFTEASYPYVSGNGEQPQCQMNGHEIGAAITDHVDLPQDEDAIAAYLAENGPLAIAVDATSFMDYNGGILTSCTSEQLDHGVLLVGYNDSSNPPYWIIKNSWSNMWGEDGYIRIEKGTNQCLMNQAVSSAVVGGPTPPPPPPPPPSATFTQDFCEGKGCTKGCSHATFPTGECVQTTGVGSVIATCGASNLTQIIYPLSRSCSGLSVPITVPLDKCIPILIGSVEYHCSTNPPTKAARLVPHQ
Entry rule: numbers only, all in µM.

compound | IC50 [µM]
CN(C)CCCNc1c2ccccc2[n+](C)c2c1[nH]c1ccccc12.[Cl-] | 6
C[n+]1c2cc(Cl)ccc2c(NC2CCNCC2)c2[nH]c3ccccc3c21.[Cl-] | 0.5
C[n+]1c2cc(Cl)ccc2c(NC2CCNCC2)c2[nH]c3cc(Cl)ccc3c21.[Cl-] | 0.5
CCN(CC)CCCCNc1c2ccccc2[n+](C)c2c1[nH]c1ccccc12.[Cl-] | 6
C[n+]1c2ccccc2c(NCCCN2CCCCC2)c2[nH]c3ccccc3c21.[Cl-] | 5

Write down measured IC50 (UniProt Q95PM0) for this compound. C[n+]1c2ccccc2cc2[n-]c3ccccc3c21.Cl [CRYPTOLEPINE HYDROCHLORIDE]
23
